experiment: Plasma concentration in CD1 mouse infected with wild type Aspergillus fumigatus at 16 mg/kg, […] by HPLC analysis; assay type: ADME, organism-based; design: dose 16 mg/kg, route oral; conditions: po
attribute.measured: concentration (ng/mL)
Kindly answer with a numeric value in ng/mL, unit omitted.

input: Please look up its concentration: CC[C@@H]([C@H](C)O)n1ncn(-c2ccc(N3CCN(c4ccc(OC[C@@H]5CO[C@@](Cn6cncn6)(c6ccc(F)cc6F)C5)cc4)CC3)cc2)c1=O [POSACONAZOLE]
output: 2700

----------
assay: Apparent oral clearance in CD1 mouse infected with wild type Aspergillus fumigatus at 64 mg/kg, po qd for 14 days measured after 24 hrs post last dose by HPLC analysis; format: ADME, organism-based; design: dose 64 mg/kg, route oral; details: in vivo
attribute.measured: CL/F (mL/min/kg)
Kindly answer with a numeric value in mL/min/kg, unit omitted.

input: Please look up its CL/F: CC[C@@H]([C@H](C)O)n1ncn(-c2ccc(N3CCN(c4ccc(OC[C@@H]5CO[C@@](Cn6cncn6)(c6ccc(F)cc6F)C5)cc4)CC3)cc2)c1=O [POSACONAZOLE]
output: 3.67

----------
system: Mus musculus; assay: Dose normalised AUC in CD1 mouse infected with wild type Aspergillus fumigatus at 1 mg/kg, po qd for 14 days measured after 24 hrs post last dose by HPLC analysis; format: ADME, organism-based; design: time < 24 hr, dose 1 mg/kg, route oral; details: in vivo
attribute.measured: AUC (kg·h/L)
Kindly answer with a numeric value in kg·h/L, unit omitted.

input: Please look up its AUC: CC[C@@H]([C@H](C)O)n1ncn(-c2ccc(N3CCN(c4ccc(OC[C@@H]5CO[C@@](Cn6cncn6)(c6ccc(F)cc6F)C5)cc4)CC3)cc2)c1=O [POSACONAZOLE]
output: 10.2

----------
experiment: Cmax in CD1 mouse infected with wild type Aspergillus fumigatus at 16 mg/kg, po qd for 14 days measured after 24 hrs post last dose by HPLC analysis; type: ADME, organism-based; set-up: dose 16 mg/kg, route oral; settings: in vivo
attribute.measured: Cmax
Param answer (str): number followed by unit.

input: Please look up its Cmax: "CC[C@@H]([C@H](C)O)n1ncn(-c2ccc(N3CCN(c4ccc(OC[C@@H]5CO[C@@](Cn6cncn6)(c6ccc(F)cc6F)C5)cc4)CC3)cc2)c1=O"
output: 9030 ng/mL

----------
assay: Apparent oral clearance in CD1 mouse infected with wild type Aspergillus fumigatus at 16 mg/kg, po qd for 14 days measured after 24 hrs post last dose by HPLC analysis; assay type: ADME, organism-based; parameters: dose 16 mg/kg, route oral; conditions: in vivo
attribute.measured: CL/F (mL/min/kg)
Kindly answer with a numeric value in mL/min/kg, unit omitted.

input: Please look up its CL/F: "CC[C@@H]([C@H](C)O)n1ncn(-c2ccc(N3CCN(c4ccc(OC[C@@H]5CO[C@@](Cn6cncn6)(c6ccc(F)cc6F)C5)cc4)CC3)cc2)c1=O"
output: 1.67

----------
tested on: Mus musculus; assay: Dose normalised AUC in CD1 mouse infected with wild type Aspergillus fumigatus at 4 mg/kg, po qd for 14 days measured after 24 hrs post last dose by HPLC analysis; format: ADME, organism-based; set-up: time < 24 hr, dose 4 mg/kg, route oral; settings: in vivo
attribute.measured: AUC (kg·h/L)
Kindly answer with a numeric value in kg·h/L, unit omitted.

input: Please look up its AUC: "CC[C@@H]([C@H](C)O)n1ncn(-c2ccc(N3CCN(c4ccc(OC[C@@H]5CO[C@@](Cn6cncn6)(c6ccc(F)cc6F)C5)cc4)CC3)cc2)c1=O"
output: 11.3

----------
assay: AUC in CD1 mouse infected with wild type Aspergillus fumigatus at 16 mg/kg, po qd for 14 days measured after 24 hrs post last dose by HPLC analysis; format: ADME, organism-based; design: time < 24 hr, dose 16 mg/kg, route oral; details: plasma
attribute.measured: AUC at 24 h

input: Please look up its AUC at 24 h: CC[C@@H]([C@H](C)O)n1ncn(-c2ccc(N3CCN(c4ccc(OC[C@@H]5CO[C@@](Cn6cncn6)(c6ccc(F)cc6F)C5)cc4)CC3)cc2)c1=O [POSACONAZOLE]
output: 159 µg·h/mL

----------
assay: Apparent oral clearance in CD1 mouse infected with wild type Aspergillus fumigatus at 4 mg/kg, po qd for 14 days measured after 24 hrs post last dose by HPLC analysis; format: ADME, organism-based; parameters: dose 4 mg/kg, route oral; details: in vivo
attribute.measured: CL/F

input: Please look up its CL/F: CC[C@@H]([C@H](C)O)n1ncn(-c2ccc(N3CCN(c4ccc(OC[C@@H]5CO[C@@](Cn6cncn6)(c6ccc(F)cc6F)C5)cc4)CC3)cc2)c1=O [POSACONAZOLE]
output: 1.5 mL/min/kg

----------
test: AUC in CD1 mouse infected with wild type Aspergillus fumigatus at 64 mg/kg, po qd for 14 days measured after 24 hrs post last dose by HPLC analysis; format: ADME, organism-based; parameters: time < 24 hr, dose 64 mg/kg, route oral; details: plasma
attribute.measured: AUC at 24 h (µg·h/mL)
Kindly answer with a numeric value in µg·h/mL, unit omitted.

input: Please look up its AUC at 24 h: "CC[C@@H]([C@H](C)O)n1ncn(-c2ccc(N3CCN(c4ccc(OC[C@@H]5CO[C@@](Cn6cncn6)(c6ccc(F)cc6F)C5)cc4)CC3)cc2)c1=O"
output: 297

----------
experiment: Tmax in CD1 mouse infected with wild type Aspergillus fumigatus at 1 mg/kg, […] by HPLC analysis; assay type: ADME, organism-based; design: dose 1 mg/kg, route oral; details: in vivo, po
attribute.measured: Tmax (h)
Kindly answer with a numeric value in h, unit omitted.

input: Please look up its Tmax: "CC[C@@H]([C@H](C)O)n1ncn(-c2ccc(N3CCN(c4ccc(OC[C@@H]5CO[C@@](Cn6cncn6)(c6ccc(F)cc6F)C5)cc4)CC3)cc2)c1=O"
output: 4

----------
Measured MIC values are reported for all entries that follow.
system: Aspergillus fumigatus; assay: Antifungal activity against Aspergillus fumigatus isolate AZN 8196 harboring wild type Cyp51A protein by broth microdilution method; type: functional

Solved cases below.
C[C@@H](c1ncncc1F)[C@](O)(Cn1cncn1)c1ccc(F)cc1F ... 0.25 µg/mL
CC[C@@H]([C@H](C)O)n1ncn(-c2ccc(N3CCN(c4ccc(OC[C@@H]5CO[C@@](Cn6cncn6)(c6ccc(F)cc6F)C5)cc4)CC3)cc2)c1=O ... 0.031 µg/mL
C[C@@H]1[C@H](O)[C@@H](C)/C=C/C=C/C=C/C=C/C=C/C=C/C=C/[C@H](O[C@@H]2O[C@H](C)[C@@H](O)[C@H](N)[C@@H]2O)C[C@@H]2O[C@](O)(C[C@@H](O)C[C@@H](O)[C@H](O)CC[C@@H](O)C[C@@H](O)CC(=O)O[C@H]1C)C[C@H](O)[C@H]2C(=O)O ... 0.5 µg/mL

Please turn your attention to the following entry.
input: Please look up its MIC: CCC(C)n1ncn(-c2ccc(N3CCN(c4ccc(OCC5COC(Cn6cncn6)(c6ccc(Cl)cc6Cl)O5)cc4)CC3)cc2)c1=O (centres undefined)
output: 0.125 µg/mL

----------
experiment: Tmax in CD1 mouse infected with wild type Aspergillus fumigatus at 64 mg/kg, […] by HPLC analysis; format: ADME, organism-based; set-up: dose 64 mg/kg, route oral; conditions: in vivo, po
attribute.measured: Tmax
Param answer (str): number followed by unit.

input: Please look up its Tmax: CC[C@@H]([C@H](C)O)n1ncn(-c2ccc(N3CCN(c4ccc(OC[C@@H]5CO[C@@](Cn6cncn6)(c6ccc(F)cc6F)C5)cc4)CC3)cc2)c1=O [POSACONAZOLE]
output: 8 h

----------
experiment: Tmax in CD1 mouse infected with wild type Aspergillus fumigatus at 16 mg/kg, […] by HPLC analysis; assay type: ADME, organism-based; design: dose 16 mg/kg, route oral; settings: in vivo, po
attribute.measured: Tmax (h)
Kindly answer with a numeric value in h, unit omitted.

input: Please look up its Tmax: "CC[C@@H]([C@H](C)O)n1ncn(-c2ccc(N3CCN(c4ccc(OC[C@@H]5CO[C@@](Cn6cncn6)(c6ccc(F)cc6F)C5)cc4)CC3)cc2)c1=O"
output: 8

----------
experiment: Plasma concentration in CD1 mouse infected with wild type Aspergillus fumigatus at 4 mg/kg, […] by HPLC analysis; assay type: ADME, organism-based; design: dose 4 mg/kg, route oral; conditions: po
attribute.measured: concentration (ng/mL)
Kindly answer with a numeric value in ng/mL, unit omitted.

input: Please look up its concentration: "CC[C@@H]([C@H](C)O)n1ncn(-c2ccc(N3CCN(c4ccc(OC[C@@H]5CO[C@@](Cn6cncn6)(c6ccc(F)cc6F)C5)cc4)CC3)cc2)c1=O"
output: 940

----------
tested on: Mus musculus; test: Dose normalised AUC in CD1 mouse infected with wild type Aspergillus fumigatus at 64 mg/kg, po qd for 14 days measured after 24 hrs post last dose by HPLC analysis; assay type: ADME, organism-based; parameters: time < 24 hr, dose 64 mg/kg, route oral; conditions: in vivo
attribute.measured: AUC
Param answer (str): number followed by unit.

input: Please look up its AUC: "CC[C@@H]([C@H](C)O)n1ncn(-c2ccc(N3CCN(c4ccc(OC[C@@H]5CO[C@@](Cn6cncn6)(c6ccc(F)cc6F)C5)cc4)CC3)cc2)c1=O"
output: 4.64 kg·h/L
